system: 922993-354-T-J3-PDC complex spheroids, viability, % test/control; assay: Anticancer human tumor 922993-354-T-J3-PDC patient-derived endometrial carcinoma cell line growth inhibition [CLK]; conditions: second compound 0.316 µM; first compound 0.316 µM; stronger effect = lower value;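 also: spheroids exposed to the agents for 7 days before readout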
Property: viability, T/C; scope: individual compounds
valueType: viability, T/C

>>> result("Nc1ccn(C2OC(CO)C(O)C2(F)F)c(=O)n1 (stereo not given) + CNC(=O)c1ccc(Nc2nc(OC3CCCC3)c3c(-c4ccc5nc(C)oc5c4)c[nH]c3n2)c(OC)c1")
"16.5%"
>>> result("C#Cc1c(F)ccc2cc(O)cc(-c3ncc4c(N5CC6CCC(C5)N6)nc(OCC56CCCN5CC(F)C6)nc4c3F)c12 (stereo not given) + CNC(=O)c1ccc(Nc2nc(OC3CCCC3)c3c(-c4ccc5nc(C)oc5c4)c[nH]c3n2)c(OC)c1")
"63%"
>>> result("CCc1c2c(nc3ccc(O)cc13)-c1cc3c(c(=O)n1C2)COC(=O)[C@]3(O)CC + CNC(=O)c1ccc(Nc2nc(OC3CCCC3)c3c(-c4ccc5nc(C)oc5c4)c[nH]c3n2)c(OC)c1")
"21.4%"
>>> result("CC1COCCN1c1cc(C2(S(C)(=N)=O)CC2)nc(-c2ccnc3[nH]ccc23)n1 (stereo not given) + CN1CCN(c2cc(C(=O)Nc3cc4cc(-c5cnn(C)c5)ccc4cn3)ccn2)CC1")
"35.9%"
>>> result("CC1(C)CCC(CN2CCN(c3ccc(C(=O)NS(=O)(=O)c4ccc(NCC5CCOCC5)c([N+](=O)[O-])c4)c(Oc4cnc5[nH]ccc5c4)c3)CC2)=C(c2ccc(Cl)cc2)C1 + CNC(=O)c1ccc(Nc2nc(OC3CCCC3)c3c(-c4ccc5nc(C)oc5c4)c[nH]c3n2)c(OC)c1")
"61.3%"

Reference for the values: PubChem BioAssay AID2060606
